The reported measurements were obtained from patent US20260116921A1.

// half-life at 20 μM lookup, one value per entry
TEST_NAME: in vitro
RUN_CONDITIONS: both, SD, rat, plasma (EDTA)
Bridge positions count the residues as written; N and C are the ends. Square brackets hold non-standard residues; d marks the D form. Peptide text beside a SMILES is read from it. Trp(7-Me) = Cc1cccc2c(C[C@H](N)C(=O)O)c[nH]c12; 2Nal = N[C@@H](Cc1ccc2ccccc2c1)C(=O)O; AEF = NCCOc1ccc(C[C@H](N)C(=O)O)cc1; Cit = NC(=O)NCCC[C@H](N)C(=O)O; αMeL = CC(C)C[C@](C)(N)C(=O)O; Pen = CC(C)(S)[C@H](N)C(=O)O; αMeK = C[C@](N)(CCCCN)C(=O)O; βAla = NCCC(=O)O

Some molecules with recorded half-life at 20 μM:
CC(=O)NCCCC[C@@H]1NC(=O)[C@H](Cc2c[nH]c3c(C)cccc23)NC(=O)[C@H]([C@@H](C)O)NC(=O)[C@H](CC(N)=O)NC(=O)[C@@H](NC(C)=O)C(C)(C)SSC(C)(C)[C@@H](C(=O)N[C@@H](Cc2ccc(OCCN)cc2)C(=O)N[C@@H](Cc2ccc3ccccc3c2)C(=O)N[C@@](C)(CCCCN)C(=O)N[C@@H](CCCCNC(C)=O)C(=O)N[C@@H](CC(N)=O)C(=O)N[C@H](CC(C)C)C(N)=O)NC1=O	> 1440 min
CC(=O)NCCCC[C@@H]1NC(=O)[C@H](Cc2c[nH]c3c(C)cccc23)NC(=O)[C@H]([C@@H](C)O)NC(=O)[C@H](CC(N)=O)NC(=O)[C@@H](NC(C)=O)C(C)(C)SSC(C)(C)[C@@H](C(=O)N[C@@H](Cc2ccc(OCCN)cc2)C(=O)N[C@@H](Cc2ccc3ccccc3c2)C(=O)N[C@@](C)(CCCCN)C(=O)N[C@@H](CCCCNC(C)=O)C(=O)N[C@@H](CC(N)=O)C(=O)N[C@@H](CCCNC(N)=O)C(N)=O)NC1=O	> 1440 min
CC(=O)NCCCC[C@H](NC(=O)[C@](C)(CCCCN)NC(=O)[C@H](Cc1ccc2ccccc2c1)NC(=O)[C@H](Cc1ccc(OCCN)cc1)NC(=O)[C@H]1NC(=O)[C@H](CCC(N)=O)NC(=O)[C@H](Cc2c[nH]c3cc(Cl)ccc23)NC(=O)[C@H]([C@@H](C)O)NC(=O)[C@H](CC(N)=O)NC(=O)[C@@H](NC(C)=O)C(C)(C)SSC1(C)C)C(=O)N[C@@H](CC(N)=O)C(=O)NCCC(N)=O	> 1440 min
CC(=O)NCCCC[C@@H]1NC(=O)[C@H](Cc2c[nH]c3c(C)cccc23)NC(=O)[C@H]([C@@H](C)O)NC(=O)[C@H](CC(N)=O)NC(=O)[C@@H](NC(C)=O)C(C)(C)SSC(C)(C)[C@@H](C(=O)N[C@@H](Cc2ccc(OCCN)cc2)C(=O)N[C@@H](Cc2ccc3ccccc3c2)C(=O)N[C@@](C)(CCCCN)C(=O)N[C@@H](CCCCNC(C)=O)C(=O)N[C@@H](CC(N)=O)C(=O)N[C@@H](CC(C)C)C(N)=O)NC1=O	> 1440 min
CC(=O)NCCCC[C@@H]1NC(=O)[C@H](Cc2c[nH]c3c(C)cccc23)NC(=O)[C@H]([C@@H](C)O)NC(=O)[C@H](CC(N)=O)NC(=O)[C@@H](NC(C)=O)C(C)(C)SSC(C)(C)[C@@H](C(=O)N[C@@H](Cc2c[nH]cn2)C(=O)N[C@@H](Cc2ccc3ccccc3c2)C(=O)N[C@@](C)(CCCCN)C(=O)N[C@@H](CCCCNC(C)=O)C(=O)N[C@@H](CC(N)=O)C(=O)N[C@H](CC(C)C)C(N)=O)NC1=O [compound 290] (Ac-[Pen]NT[Trp(7-Me)]K(Ac)[Pen]H[2Nal][αMeK]K(Ac)N[dL]-NH2; disulfide 1-6)	> 1440 min
CC(=O)NCCCC[C@H](NC(=O)[C@](C)(CCCCN)NC(=O)[C@H](Cc1ccc2ccccc2c1)NC(=O)[C@H](Cc1ccc(OCCN)cc1)NC(=O)[C@H]1NC(=O)[C@](C)(CC(C)C)NC(=O)[C@H](Cc2c[nH]c3c(C)cccc23)NC(=O)[C@H]([C@@H](C)O)NC(=O)[C@H](CC(N)=O)NC(=O)[C@@H](NC(C)=O)C(C)(C)SSC1(C)C)C(=O)N[C@@H](CC(N)=O)C(=O)NCCC(N)=O [compound 235] (Ac-[Pen]NT[Trp(7-Me)][αMeL][Pen][AEF][2Nal][αMeK]K(Ac)N[βAla]-NH2; disulfide 1-6)	300 min
CC(=O)NCCCC[C@H](NC(=O)C1(NC(=O)[C@H](Cc2ccc3ccccc3c2)NC(=O)[C@H](Cc2ccc(OCCN)cc2)NC(=O)[C@@H]2CSCC[C@H](NC(=O)[C@@H](CCCNC(=N)N)NC(C)=O)C(=O)N[C@@H](CCC(N)=O)C(=O)N[C@@H]([C@@H](C)O)C(=O)N[C@@H](Cc3c[nH]c4c(C)cccc34)C(=O)N[C@@H](CCC(N)=O)C(=O)N2)CCOCC1)C(=O)N[C@@H](CC(N)=O)C(=O)N[C@@H](CC(N)=O)C(N)=O	180 min
CC(=O)NCCCC[C@H](NC(=O)[C@](C)(CCCCN)NC(=O)[C@H](Cc1ccc2ccccc2c1)NC(=O)[C@H](Cc1ccc(OCCN)cc1)NC(=O)[C@H]1NC(=O)[C@H](CCCNC(N)=O)NC(=O)[C@H](Cc2c[nH]c3c(C)cccc23)NC(=O)[C@H]([C@@H](C)O)NC(=O)[C@H](CC(N)=O)NC(=O)[C@@H](NC(C)=O)C(C)(C)SSC1(C)C)C(=O)N[C@@H](CC(N)=O)C(=O)N[C@H](C(N)=O)[C@@H](C)O [compound 262] (Ac-[Pen]NT[Trp(7-Me)][Cit][Pen][AEF][2Nal][αMeK]K(Ac)NT-NH2; disulfide 1-6)	> 1440 min

# half-life at 20 μM of COc1cccc2c(C[C@@H]3NC(=O)[C@H]([C@@H](C)O)NC(=O)[C@H](CC(N)=O)NC(=O)[C@@H](NC(C)=O)C(C)(C)SSC(C)(C)[C@@H](C(=O)N[C@@H](Cc4ccc(OCCN)cc4)C(=O)N[C@@H](Cc4ccc5ccccc5c4)C(=O)N[C@@](C)(CCCCN)C(=O)N[C@@H](CCCCNC(C)=O)C(=O)N[C@@H](CC(N)=O)C(=O)N[C@H](CC(C)C)C(N)=O)NC(=O)[C@H](CCCCNC(C)=O)NC3=O)c[nH]c12 = > 1440 min
